- Test Protocol: Lymphocytic Leukemia P388/0 Test
- Assay type: in vivo, mouse (CD2-F1)
- Condition Notes: mouse, in vivo; ip days 1, 5, 9; doses on a mg/kg basis; read-out: highest nontoxic dose where the LD20 was not determined (values in parentheses in LD20 column)
Counter-ions that a name gives are not always drawn.
Please provide measured MTD for the entries that follow.
Kindly answer with a numeric value in mg/kg, unit omitted.

Challenge: Entry under review: CC(CO)(CO)NCc1c2ccccc2cc2cc(Cl)ccc12 [Example 18, hydrochloride] . Reported MTD?
Response given: 675

Challenge: Entry under review: CC(CO)(CO)NCc1c2ccccc2c(Br)c2ccccc12.Cl . Reported MTD?
Response given: 450

Challenge: Entry under review: CC(CO)(CO)NCc1c2ccccc2c(Cl)c2ccc(Cl)cc12.Cl [Example 22C] . Reported MTD?
Response given: 400

Challenge: Entry under review: CC(CO)(CO)NCc1cccc2c(Br)c3ccccc3cc12.Cl [Example 16C] . Reported MTD?
Response given: 300

Challenge: Entry under review: CC(CO)(CO)NCc1c2ccccc2c(S(C)(=O)=O)c2ccccc12.Cl [Example 26B] . Reported MTD?
Response given: 300

Challenge: Entry under review: CC(CO)(CO)NCc1c2ccccc2c(CCCl)c2ccccc12.Cl . Reported MTD?
Response given: 300

Challenge: Entry under review: CC(CO)(CO)NCc1c2ccccc2c(Cl)c2c(Cl)cccc12.Cl . Reported MTD?
Response given: 300

Challenge: Entry under review: CC(CO)(CO)NCc1c2ccccc2c(Cl)c2cc(Cl)ccc12.Cl . Reported MTD?
Response given: 300

Challenge: Entry under review: Cc1cc2c(Cl)c3ccccc3c(CNC(C)(CO)CO)c2cc1C.Cl [Example 40B] . Reported MTD?
Response given: 300

Challenge: Entry under review: CC(CO)(CO)NCc1c2cccc(Cl)c2cc2c(Cl)cccc12.Cl [Example 10B] . Reported MTD?
Response given: 450
